TARGET ENTITY: Aldehyde dehydrogenase 1A1 (Homo sapiens) (UniProt P00352)
Sequence (P00352 whole entry, looked up): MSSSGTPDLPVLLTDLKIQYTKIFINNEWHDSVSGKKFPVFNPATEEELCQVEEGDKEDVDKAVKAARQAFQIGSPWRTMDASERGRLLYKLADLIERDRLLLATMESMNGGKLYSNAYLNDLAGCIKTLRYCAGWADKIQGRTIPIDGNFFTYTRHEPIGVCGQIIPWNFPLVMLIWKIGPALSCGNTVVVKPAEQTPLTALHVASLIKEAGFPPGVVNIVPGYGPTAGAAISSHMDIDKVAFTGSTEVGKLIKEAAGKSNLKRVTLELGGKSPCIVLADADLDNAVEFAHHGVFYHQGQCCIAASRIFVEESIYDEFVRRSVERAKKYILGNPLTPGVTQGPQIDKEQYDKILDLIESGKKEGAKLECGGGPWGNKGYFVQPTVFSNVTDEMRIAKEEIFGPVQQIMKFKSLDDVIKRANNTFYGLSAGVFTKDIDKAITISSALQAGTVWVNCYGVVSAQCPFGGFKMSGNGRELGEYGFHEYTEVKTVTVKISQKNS
PROTOCOL NOTES: qHTS Assay for Inhibitors of Aldehyde Dehydrogenase 1 (ALDH1A1)
DETAILS: Purified ALDH1A1, NADH fluorescence, propionaldehyde substrate; series mostly up to 75.3 µM
Out of some 220,000 compounds screened, about 16,000 (7.3%) were called active. Another 25% or so got no clear call; they are omitted. Calls come from the whole dose curve; as a rule, active = well fitted inhibition curve with a large enough effect (not every such curve was filed as active); inconclusive = small, poorly fitted or top-dose-only effect, or another doubt; inactive = no such curve, though single readings can be large or run the other way. Shown is part of a subset that was picked to be rich in actives.
Result category, one only: active, inactive

Solved entries (count: 2):
{"columns": ["CHEMICAL STRING", "TARGET ENTITY", "LABEL"],
 "data": [
  ["CCN(CC)C(=O)CN(c1cccc([N+](=O)[O-])c1)S(=O)(=O)c1ccccc1", "Aldehyde dehydrogenase 1A1 (Homo sapiens) (UniProt P00352)", "inactive"],
  ["CC1CCN(c2nc3c(c(=O)[nH]c(=O)n3C)n2CCCc2ccccc2)CC1", "Aldehyde dehydrogenase 1A1 (Homo sapiens) (UniProt P00352)", "active"]
]}

Dear all, I need the recorded test outcome for `COc1cccc(Cn2c(=O)c(C)nc3cnc(Oc4ccccc4)nc32)c1` , thank you. inactive
